Measured values drawn from ChEMBL document CHEMBL1201862 for this set.

# Test system: NCI-H23
# protocol.details: NCI tumour cell line growth inhibition, 48 h
Active and inactive are the calls of the source. Rule as the data show it: active = GI50 up to about 1.1 µM and inactive = higher.
Below, each of the molecules is paired with its reported GI50 value.

Example molecules with recorded GI50:
{"molecule": "CC(C)(C)c1cc(C(CO)OCCOCCO)cc(C(C)(C)C)c1O (centres undefined)", "assay.system": "NCI-H23", "GI50": "> 100 µM (inactive)"}
{"molecule": "O=P1(O)C=CC2(CCCC2)O1", "assay.system": "NCI-H23", "GI50": "> 100 µM (inactive)"}
{"molecule": "CC1=CC2C(=O)N(c3ccccc3)C(=O)C2CC1n1[nH]c(=O)n(Cc2ccccc2)c1=O (centres undefined)", "assay.system": "NCI-H23", "GI50": "> 100 µM (inactive)"}

(Q) Fill blank: measured GI50 of the molecule O=CNc1ncn[nH]1 is ____.
(A) > 100 µM (inactive)

(Q) // query GI50 value for entry Oc1ccc(-c2nc3ccc(F)cc3s2)cc1
(A) 19.7 µM (inactive)

(Q) Consider the molecule C=C1CCC2[C@](C)(CCC[C@]2(C)C(=O)O)[C@@H]1CCc1ccoc1 (some centres undefined) and give its measured GI50.
(A) 21.4 µM (inactive)

(Q) Given the molecule O=NN(Cc1ccc(Cl)cc1)C(C(=O)O)c1ccccc1 (centres undefined) , what is its reported GI50?
(A) > 100 µM (inactive)

(Q) Quick one: GI50 of C/C=C(\C)[C@@H](O)C(=O)O[C@@H]1CC(C(C)(C)O)[C@](C)(CCC(=O)OC)[C@H]2[C@H](OC(=O)[C@H](O)[C@H](C)CC)C[C@]3(C)C(=CC[C@H]3[C@H]3CO[C@H](C=C(C)C)C3)[C@]12C (some centres undefined) ?
(A) 18.4 µM (inactive)

(Q) Find the recorded GI50 belonging to Clc1nncc2sc(-c3ccccc3)nc12 and report it.
(A) 17.5 µM (inactive)
